# procedure-details: Selectivity ratio of CC50 for human RD cells to EC50 for Enterovirus A71 TW/4643/1998
# Type: toxicity
# recorded-conditions: read-out: Ratio CC50/EC50
readout-name: selectivity ratio

query-smiles	readout-name	reported-measurement
C=C(CC(=O)Nc1ccc(C(F)(F)F)cc1F)C(=O)Nc1ccc(C(F)(F)F)cc1F	selectivity ratio	1

----------
# procedure-details: Selectivity ratio of CC50 for MDCK cells to EC50 for Influenza A virus A/TW/00482/13
# Type: toxicity
# recorded-conditions: dog, read-out: Ratio CC50/EC50

query-smiles	selectivity ratio
C=C(CC(=O)Nc1ccc(F)cc1F)C(=O)Nc1ccc(F)cc1F	22

----------
# procedure-details: Selectivity ratio of CC50 for MDCK cells to EC50 for Influenza A virus (A/WSN/33)
# Type: toxicity
# recorded-conditions: dog, read-out: Ratio CC50/EC50
Listed next: entries and their corresponding selectivity ratio.
readout-name: selectivity ratio

query-smiles	reported-measurement
CCC(=C/[C@H](C)C/C=C/C(C)=C/[C@@H](C)C(=O)[C@@H](C)[C@H](O)[C@@H](C)C/C(C)=C/C(=O)O)/C=C/[C@@H]1OC(=O)C=C[C@@H]1C	> 4
C=C(CC(=O)Nc1ccc(Cl)cc1F)C(=O)Nc1ccc(Cl)cc1F	> 164
C=C(CC(=O)Nc1ccc(Br)cc1Br)C(=O)Nc1ccc(Br)cc1Br	> 2
C=C(CC(=O)Nc1ccc(OC)cc1F)C(=O)Nc1ccc(OC)cc1F	> 3
C=C(CC(=O)Nc1ccc(Br)cc1F)C(=O)Nc1ccc(Br)cc1F	> 111
C=C(CC(=O)Nc1ccc(C(F)(F)F)cc1F)C(=O)Nc1ccc(C(F)(F)F)cc1F	> 785
